# method.summary: SSRI metabolization in eleutheroembryos exposed to the mixture of parent compounds
# condition.parameters: zebrafish (Danio rerio), whole eleutheroembryos (larvae), other: waterborne exposure in exposure medium, pH 7.8, metabolite concentration in eleutheroembryos, parent exposure concentration 300 μg·L^-1; t = 48h
Structures can show the parent of a compound that is named as a salt.
quantity: concentration at 48 h (ng/g)
Give bare numbers, in ng/g.

Supply concentration at 48 h value. Item: CNCCCC1(c2ccc(F)cc2)OCc2cc(C#N)ccc21 (stereo not shown) [Desmethylcitalopram, desmethylcitalopram hydrochloride]
123

----------
# method.summary: SSRI metabolization in eleutheroembryos exposed to the mixture of parent compounds
# condition.parameters: zebrafish (Danio rerio), whole eleutheroembryos (larvae), other: waterborne exposure in exposure medium, pH 7.8, metabolite concentration in eleutheroembryos, parent exposure concentration 300 μg·L^-1; t = 45h
Structures can show the parent of a compound that is named as a salt.
quantity: concentration at 45 h (ng/g)
Give bare numbers, in ng/g.

Supply concentration at 45 h value. Item: CNCCCC1(c2ccc(F)cc2)OCc2cc(C#N)ccc21 (stereo not shown) [Desmethylcitalopram, desmethylcitalopram hydrochloride]
203

----------
# method.summary: SSRI metabolization in eleutheroembryos exposed to the mixture of parent compounds
# condition.parameters: zebrafish (Danio rerio), whole eleutheroembryos (larvae), other: waterborne exposure in exposure medium, pH 7.8, metabolite concentration in eleutheroembryos, parent exposure concentration 80 μg·L^-1; t = 6h
Counter-ions that a name gives are not always drawn.
quantity: concentration at 6 h (ng/g)
One number for each entry, in ng/g.

Supply concentration at 6 h value. Item: CNCCCC1(c2ccc(F)cc2)OCc2cc(C#N)ccc21 (stereo not shown) [Desmethylcitalopram, desmethylcitalopram hydrochloride]
8.9

----------
# method.summary: SSRI metabolization in eleutheroembryos exposed to the mixture of parent compounds
# condition.parameters: zebrafish (Danio rerio), whole eleutheroembryos (larvae), other: waterborne exposure in exposure medium, pH 7.8, metabolite concentration in eleutheroembryos, parent exposure concentration 80 μg·L^-1; t = 24h
Where a name gives a salt, the structure may show the parent alone.
quantity: concentration at 24 h
The reply must contain the numeric value and, after it, the unit.

Supply concentration at 24 h value. Item: CNCCCC1(c2ccc(F)cc2)OCc2cc(C#N)ccc21 (stereo not shown) [Desmethylcitalopram, desmethylcitalopram hydrochloride]
10.1 ng/g
